Origin of measurements: paper PMC8273112

# Test system: Plasmodium falciparum strain Dd2
# assay-text: SYBR Green growth inhibition assay, P. falciparum Dd2
# Type: cell-based
# measurement-setup: Plasmodium falciparum, DD2, 72 h, read-out: IC50 Dd2
pIC50: −log10 of the molar value.
Quick list: pIC50 per entry.
outcome-measure: pIC50

molecule="Cl.N=C(N/N=C/c1ccc(OC(F)(F)F)cc1)N/N=C/c1ccc(OC(F)(F)F)cc1 [Compound 16]" reported_value=7.08
molecule="N=C(N/N=C/c1ccc(N2CCOCC2)cc1)N/N=C/c1ccc(N2CCOCC2)cc1 [Compound 33]" reported_value=6.48
molecule="N#Cc1ccccc1/C=N/NC(=N)N/N=C/c1ccccc1C#N [Compound 20]" reported_value=5.68
molecule="N=C(N/N=C/c1ccc(OC(F)F)cc1)N/N=C/c1ccc(OC(F)F)cc1 [Compound 18]" reported_value=6.72

---

# System: Plasmodium yoelii
# assay-text: Modified 4-day Peters test, murine malaria
# Assay type: in vivo, Plasmodium yoelii in mice
# measurement-setup: oral gavage days 1–4, parasitemia day 5, mice
outcome-measure: P. yoelii ED50 (mg/kg/day)

compound=Cl.N#Cc1ccc(C=NNC(=N)NN=Cc2ccc(C#N)cc2)cc1 display_unit=mg/kg/day reported_value=2.7
compound=Cl.N#Cc1cccc(/C=N/NC(=N)N/N=C/c2cccc(C#N)c2)c1 display_unit=mg/kg/day reported_value=7.1
compound=Cl.N=C(N/N=C/c1ccc(OC(F)(F)F)cc1)N/N=C/c1ccc(OC(F)(F)F)cc1 display_unit=mg/kg/day reported_value=1.2
compound="Cl.N=C(NN=Cc1ccc(Cl)cc1)NN=Cc1ccc(Cl)cc1 [robenidine, reference compound]" display_unit=mg/kg/day reported_value=1.6

---

# Tested on: P. falciparum strain Tm90–C2B
# assay-text: SYBR Green growth inhibition assay, P. falciparum Tm90-C2B
# Type: cell-based, Plasmodium falciparum
# measurement-setup: read-out: IC50 Tm90–C2B; multidrug-resistant clinical isolate also resistant to atovaquone, 72 h
outcome-measure: IC50 (nM)

chemical_smiles=N=C(NN=Cc1ccc(-n2cnnn2)cc1)NN=Cc1ccc(-n2cnnn2)cc1 outcome_measure=IC50 bound_sign=> reported_value=5000
chemical_smiles=N=C(NN=Cc1ccc(O)cc1)NN=Cc1ccc(O)cc1 outcome_measure=IC50 bound_sign== reported_value=286
chemical_smiles=N=C(NN=Cc1ccc(S(N)(=O)=O)cc1)NN=Cc1ccc(S(N)(=O)=O)cc1 outcome_measure=IC50 bound_sign=> reported_value=5000
chemical_smiles=N=C(NN=Cc1cccc(-n2cnnn2)c1)NN=Cc1cccc(-n2cnnn2)c1 outcome_measure=IC50 bound_sign=> reported_value=5000
chemical_smiles=N=C(NN=Cc1ccc(C(=O)O)cc1)NN=Cc1ccc(C(=O)O)cc1 outcome_measure=IC50 bound_sign=> reported_value=5000
chemical_smiles=N=C(NN=Cc1ccc(-c2ccccc2)cc1)NN=Cc1ccc(-c2ccccc2)cc1 outcome_measure=IC50 bound_sign== reported_value=71
chemical_smiles=N=C(NN=Cc1ccc2c(c1)OC(F)(F)O2)NN=Cc1ccc2c(c1)OC(F)(F)O2 outcome_measure=IC50 bound_sign== reported_value=905

---

# System: Plasmodium falciparum strain Dd2
# assay-text: SYBR Green growth inhibition assay, P. falciparum Dd2
# Format: cell-based
# measurement-setup: Plasmodium falciparum, DD2, 72 h, read-out: IC50 Dd2
outcome-measure: IC50

molecule="N=C(N/N=C/c1ccccc1)N/N=C/c1ccccc1 [Compound 24]" reported_value="4300 nM"
molecule="N=C(N/N=C/c1ccccc1OC(F)(F)F)N/N=C/c1ccccc1OC(F)(F)F [Compound 14]" reported_value="2330 nM"
molecule="Cl.N#Cc1ccc(C=NNC(=N)NN=Cc2ccc(C#N)cc2)cc1 [Compound 22]" reported_value="166 nM"
molecule="N=C(N/N=C/c1ccc(Br)cc1)N/N=C/c1ccc(Br)cc1 [Compound 9]" reported_value="876 nM"
molecule="N=C(N/N=C/c1ccc(F)cc1)N/N=C/c1ccc(F)cc1 [Compound 4]" reported_value="3790 nM"
molecule="N=C(N/N=C/c1ccccc1F)N/N=C/c1ccccc1F [Compound 2]" reported_value="4590 nM"
molecule="N=C(N/N=C/c1cccc(Br)c1)N/N=C/c1cccc(Br)c1 [Compound 8]" reported_value="1520 nM"
molecule="Cc1ccc(/C=N/NC(=N)N/N=C/c2ccc(C)cc2)cc1 [Compound 10]" reported_value="2430 nM"
molecule="N=C(N/N=C/c1cccc(Cl)c1)N/N=C/c1cccc(Cl)c1 [Compound 6]" reported_value="567 nM"
molecule="COc1ccc(/C=N/NC(=N)N/N=C/c2ccc(OC)cc2)cc1 [Compound 11]" reported_value="1600 nM"
molecule="N=C(N/N=C/c1cccc(F)c1)N/N=C/c1cccc(F)c1 [Compound 3]" reported_value="> 5000 nM"
molecule="CN(C)c1ccc(/C=N/NC(=N)N/N=C/c2ccc(N(C)C)cc2)cc1 [Compound 28]" reported_value="264 nM"
molecule="Cl.N#Cc1cccc(/C=N/NC(=N)N/N=C/c2cccc(C#N)c2)c1 [Compound 21]" reported_value="20 nM"
molecule="N=C(N/N=C/c1ccc(C(F)(F)F)cc1)N/N=C/c1ccc(C(F)(F)F)cc1 [Compound 12]" reported_value="1540 nM"
molecule="CCN(CC)CCCC(C)Nc1ccnc2cc(Cl)ccc12 (centres unmarked) [chloroquine, reference compound]" reported_value="70 nM"
molecule="N=C(NN=Cc1ccc([N+](=O)[O-])cc1)NN=Cc1ccc([N+](=O)[O-])cc1 [Compound 27]" reported_value="198 nM"
molecule="N=C(N/N=C/c1cccc(OC(F)(F)F)c1)N/N=C/c1cccc(OC(F)(F)F)c1 [Compound 15]" reported_value="1570 nM"
molecule="Cl.N=C(NN=Cc1ccc(Cl)cc1)NN=Cc1ccc(Cl)cc1 [robenidine, reference compound]" reported_value="814 nM"
molecule="N=C(N/N=C/c1ccccc1)N/N=C/c1ccccc1F [Compound 38]" reported_value="2200 nM"
molecule="O=C1C(O)=C([C@H]2CC[C@H](c3ccc(Cl)cc3)CC2)C(=O)c2ccccc21 [atovaquone, reference compound]" reported_value="< 1 nM"
molecule="N=C(N/N=C/c1ccccc1Br)N/N=C/c1ccccc1Br [Compound 7]" reported_value="715 nM"
molecule="Cl.N#Cc1cc(/C=N/NC(=N)N/N=C/c2ccc(F)c(C#N)c2)ccc1F [Compound 1]" reported_value="12 nM"
molecule="N=C(N/N=C/c1ccccc1Cl)N/N=C/c1ccccc1Cl [Compound 5]" reported_value="961 nM"
